Entries and their Suppression rate (%)
System: gastric acid secretions
Assay: Anti-ulcer activity: suppression of gastric acid secretions (Shay method)
Type: in vivo, rats
Conditions: gastric acid secretion; dosage 10 mg/kg i.d.
Numbers only here, please. The scale is %.

CN/C(=N/CCSCc1nc[nH]c1C)NC#N [Cimetidine, reference compound] | 62
c1csc(-c2cc3[nH]ccn3n2)c1 [Example 20, 6-(2-Thienyl)-1H-imidazo[1,2-b]pyrazole] | 84
Cc1c(-c2ccccc2)nn2cc[nH]c12 | 67

We now examine a further compound.
Entry under test: c1ccc(-c2cc3[nH]ccn3n2)cc1 [Example 3, 6-phenyl-1H-imidazo[1,2-b]pyrazole] . Its Suppression rate (%) was 66

###

Tested on: male mice of the ddy strain
Experiment: Acute toxicity
Format: in vivo
Conditions: fraction of animals; dose 300 mg/kg oral in 0.5% carboxymethyl cellulose, observed for 7 days
measured.parameter: Toxicity (mouse)

Field: example entries. Status: answers known.
Cc1c(-c2ccccc2)nn2cc[nH]c12 | 0/5
c1csc(-c2cc3[nH]ccn3n2)c1 [Example 20, 6-(2-Thienyl)-1H-imidazo[1,2-b]pyrazole] | 0/3
FC(F)(F)c1ccc(-c2cc3[nH]ccn3n2)cc1 | 0/3
CCc1c(-c2cccs2)nn2cc[nH]c12 | 0/3

We now examine a further molecule.
Entry under test: "Cc1c(-c2cccs2)nn2cc[nH]c12" . Its Toxicity (mouse) was 0/3

###

System: carrageenan-induced edema
Experiment: Anti-inflammatory effect (carrageenan edema method)
Type: in vivo, rats of the Wistar strain
Settings: Rattus norvegicus; ID₅₀, oral, Wistar rats
Entries and their ED50
Numbers only here, please. The scale is mg/kg.

Field: example entries. Status: answers known.
Cc1nn2cc[nH]c2c1-c1ccccc1 | 25
CN(C)CCCOc1nn(Cc2ccccc2)c2ccccc12 [Benzydamine, reference compound] | 193
Cc1c(-c2cccs2)nn2cc[nH]c12 | 22.3

The reported ED50 value, carrageenan-induced edema, for c1ccc(-c2cc3[nH]ccn3n2)cc1 [Example 3, 6-phenyl-1H-imidazo[1,2-b]pyrazole] reads 36.6

The reported ED50 value, carrageenan-induced edema, for "Cc1c(-c2ccccc2)nn2cc[nH]c12" reads 34.1

The reported ED50 value, carrageenan-induced edema, for c1csc(-c2cnn3cc[nH]c23)c1 [Example 32, 7-(2-thienyl)-1H-imidazo[1,2-b]pyrazole] reads 23.4

The reported ED50 value, carrageenan-induced edema, for c1ccc(-c2cnn3cc[nH]c23)cc1 [Example 29, 7-Phenyl-1H-imidazo[1.2-b]pyrazole] reads 20.1

The reported ED50 value, carrageenan-induced edema, for c1csc(-c2cc3[nH]ccn3n2)c1 [Example 20, 6-(2-Thienyl)-1H-imidazo[1,2-b]pyrazole] reads 17.1

###

Experiment: Acute toxicity
Type: in vivo
Conditions: mouse, in vivo; fraction of animals; dose 300 mg/kg oral in 0.5% carboxymethyl cellulose, observed for 7 days
measured.parameter: mortality at 168 h (%)
Numbers only here, please. The scale is %.

Entry under test: "Cc1ccc(-c2cnn3cc[nH]c23)cc1" . Its mortality at 168 h was 30

###

Biological target: 5-lipoxygenase (Cavia porcellus)
Construct: The supernatant was isolated as an enzyme fraction; from tissue; host or cells: Casein-elicited peritoneal polymorphonuclear leukocytes of male Hartley guinea pigs; sonicated, 10,000 G supernatant
Sequence (A0A286X958 1-674): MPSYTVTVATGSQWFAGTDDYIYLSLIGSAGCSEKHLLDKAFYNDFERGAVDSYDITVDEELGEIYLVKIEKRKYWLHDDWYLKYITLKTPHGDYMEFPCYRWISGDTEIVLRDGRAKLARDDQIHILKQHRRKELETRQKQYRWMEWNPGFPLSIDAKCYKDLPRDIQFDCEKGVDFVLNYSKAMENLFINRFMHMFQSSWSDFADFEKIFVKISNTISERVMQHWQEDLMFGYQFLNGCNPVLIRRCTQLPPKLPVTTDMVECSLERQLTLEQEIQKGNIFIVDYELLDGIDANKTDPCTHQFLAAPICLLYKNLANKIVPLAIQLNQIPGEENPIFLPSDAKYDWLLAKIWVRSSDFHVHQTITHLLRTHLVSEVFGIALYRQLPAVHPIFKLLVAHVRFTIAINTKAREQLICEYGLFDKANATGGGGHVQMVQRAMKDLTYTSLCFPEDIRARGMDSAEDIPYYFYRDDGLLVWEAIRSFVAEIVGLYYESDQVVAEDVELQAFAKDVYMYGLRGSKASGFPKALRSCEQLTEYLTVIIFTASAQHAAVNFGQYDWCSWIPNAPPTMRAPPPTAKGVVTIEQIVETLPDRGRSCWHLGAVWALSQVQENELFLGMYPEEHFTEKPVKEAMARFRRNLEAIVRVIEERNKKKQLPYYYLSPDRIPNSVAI
Assay: 5-Lipoxygenase inhibitory activity (5-HITE production by polymorphonuclear leukocyte enzyme fraction)
Format: biochemical, male guinea pigs of the Hartley strain
Conditions: inhibition of production of 5-HITE from [14C]-arachidonic acid; 30°C, 30 minutes, pH 7.4; read-out: IC₅₀ (converted)
Field 'label' (enum: True / False). Set to True when IC50 is strictly under 4 µM; else False.

// known answers, use as guide
CC(C)c1c(-c2ccccc2)nn2cc[nH]c12 | False
CCCCCCCCCc1c(-c2ccccc2)nn2cc[nH]c12 | True

Q: Hello, I'm reviewing records and need to know if IC50 of "Cc1nn2cc[nH]c2c1-c1ccccc1" is below 4 µM. Could you check?
Result: True

Q: Hello, I'm reviewing records and need to know if IC50 of "CCc1c(-c2ccccc2)nn2cc[nH]c12" is below 4 µM. Could you check?
Result: False
